molecular target: human IL-23R (Homo sapiens); assay: biochemical
*1 amine or outer side, *2 acyl side, *3 side chain or, on linkers, in order; H or OH if unused. Where a SMILES comes first, the peptide text is derived from it. Bridges are numbered along the chain shown (N, C = ends). [ ]: non-standard residue; d: D form. 2Nal = N[C@@H](Cc1ccc2ccccc2c1)C(=O)O; AEF = NCCOc1ccc(C[C@H](N)C(=O)O)cc1; X1 = O=C(Cc1ccc(CN[*:1])cc1)[*:2]; 3Pal = N[C@@H](Cc1cccnc1)C(=O)O; αMeL = CC(C)C[C@](C)(N)C(=O)O; Dab = NCC[C@H](N)C(=O)O
% displacement (hIL-23R binding) for assorted compounds

{"compound": "CNC(=O)[C@H](Cc1cccnc1)NC(=O)[C@H](CCN)NC(=O)[C@@H]1CCC(=O)NCc2ccc(cc2)CC(=O)N[C@@H](C)C(=O)N[C@H]2CCC(=O)NCC[C@H](NC(=O)[C@H](CCC(N)=O)NC(=O)[C@H](Cc3c[nH]c4ccccc34)NC2=O)C(=O)N[C@@H](CCc2ccccc2)C(=O)N[C@@H](Cc2ccc3ccccc3c2)C(=O)NC(C)(C)C(=O)N1", "systemUnderTest": "human IL-23R (Homo sapiens)", "% displacement (hIL-23R binding), %": 104}
{"compound": "CC(C)C[C@]1(C)NC(=O)[C@H](Cc2ccc3ccccc3c2)NC(=O)[C@H](Cc2ccc(OCCN)cc2)NC(=O)[C@@H]2CCNC(=O)CC[C@H](NC(=O)[C@H](CO)NC(=O)Cc3ccc(cc3)CNC(=O)CC[C@@H](C(=O)N[C@@H](CCN)C(=O)N[C@@H](Cc3cccnc3)C(=O)N[C@H](Cc3c[nH]cn3)C(N)=O)NC1=O)C(=O)N[C@@H](Cc1c[nH]c3ccccc13)C(=O)N[C@@H](CCC(N)=O)C(=O)N2 [Compound 10] ([X1]SEWQ[Dab][AEF][2Nal][αMeL]E[Dab][3Pal][dH]-NH2; lactam 3-6, N-10)", "systemUnderTest": "human IL-23R (Homo sapiens)", "% displacement (hIL-23R binding), %": 91}
{"compound": "CNC(=O)[C@H](Cc1cccnc1)NC(=O)[C@H](CCN)NC(=O)[C@@H]1CCC(=O)NCc2ccc(cc2)CC(=O)N[C@@H](CO)C(=O)N[C@H]2CCC(=O)NCC[C@H](NC(=O)[C@H](CCC(N)=O)NC(=O)[C@H](Cc3c[nH]c4ccccc34)NC2=O)C(=O)N[C@@H](Cc2ccc(OCCN)cc2)C(=O)N[C@@H](Cc2ccc3ccccc3c2)C(=O)N[C@@](C)(CC(C)C)C(=O)N1", "systemUnderTest": "human IL-23R (Homo sapiens)", "% displacement (hIL-23R binding), %": 103}

====

Emax for assorted molecules
Biological target: human IL-23R (Homo sapiens, UniProt Q5VWK5)
Sequence (Q5VWK5 22-629): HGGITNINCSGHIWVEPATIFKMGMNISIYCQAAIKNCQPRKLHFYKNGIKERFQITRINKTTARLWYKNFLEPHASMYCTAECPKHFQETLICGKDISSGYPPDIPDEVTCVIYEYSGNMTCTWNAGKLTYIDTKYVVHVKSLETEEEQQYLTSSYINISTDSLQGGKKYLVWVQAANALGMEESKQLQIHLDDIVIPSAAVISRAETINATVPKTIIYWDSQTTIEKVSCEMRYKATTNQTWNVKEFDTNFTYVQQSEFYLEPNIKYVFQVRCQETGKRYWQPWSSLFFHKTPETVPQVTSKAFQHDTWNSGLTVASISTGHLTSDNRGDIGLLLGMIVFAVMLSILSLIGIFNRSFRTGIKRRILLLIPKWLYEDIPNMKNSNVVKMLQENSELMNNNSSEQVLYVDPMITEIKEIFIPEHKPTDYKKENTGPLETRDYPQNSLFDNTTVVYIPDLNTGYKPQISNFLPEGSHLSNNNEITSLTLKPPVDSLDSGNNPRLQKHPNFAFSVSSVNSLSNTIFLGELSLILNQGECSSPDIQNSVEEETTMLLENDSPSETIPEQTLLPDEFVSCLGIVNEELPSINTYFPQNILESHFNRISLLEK
Assay: biochemical
Details: read-out: % displacement (hIL-23R binding)
Description: The compound binding affinity for IL-23R was estimated by the ability of compounds to displace a fluorophore-labelled reference compound from the human IL-23R. […] The plate was sealed with light impermeable plate seals, and incubated on an orbital shaker 400 rpm for 2 hours at room temperature. […] The BRET ratio was calculated as the fluorescence from the TAMRA/nanoluc bioluminescence. […]
*1 amine or outer side, *2 acyl side, *3 side chain or, on linkers, in order; H or OH if unused. Where a SMILES comes first, the peptide text is derived from it. Bridges are numbered along the chain shown (N, C = ends). [ ]: non-standard residue; d: D form. 2Nal = N[C@@H](Cc1ccc2ccccc2c1)C(=O)O; AEF = NCCOc1ccc(C[C@H](N)C(=O)O)cc1; X1 = O=C(Cc1ccc(CN[*:1])cc1)[*:2]; 3Pal = N[C@@H](Cc1cccnc1)C(=O)O; αMeL = CC(C)C[C@](C)(N)C(=O)O; NMeS = CN[C@@H](CO)C(=O)O; Dab = NCC[C@H](N)C(=O)O
reportedMetric: Emax (%)

{"molecule": "CNC(=O)[C@H](Cc1cccnc1)NC(=O)[C@H](CCN)NC(=O)[C@@H]1CCC(=O)NCc2ccc(cc2)CC(=O)N[C@@H](CO)C(=O)N[C@H]2CCC(=O)NCC[C@H](NC(=O)[C@H](CCNC(C)=O)NC(=O)[C@H](Cc3c[nH]c4ccccc34)NC2=O)C(=O)N[C@@H](Cc2ccc(OCCN)cc2)C(=O)N[C@@H](Cc2ccc3ccccc3c2)C(=O)N[C@@](C)(CC(C)C)C(=O)N1 [Compound 25] ([X1]SEW[Dab](Ac)[Dab][AEF][2Nal][αMeL]E[Dab][3Pal]-NHMe; lactam 3-6, N-10)", "measuredValue": 93}
{"molecule": "CNC(=O)[C@H](Cc1cccnc1)NC(=O)[C@](C)(CO)NC(=O)[C@@H]1CCC(=O)NCc2ccc(cc2)CC(=O)N[C@@H](CO)C(=O)N[C@H]2CCC(=O)NCC[C@H](NC(=O)[C@H](CCC(N)=O)NC(=O)[C@H](Cc3c[nH]c4ccccc34)NC2=O)C(=O)N[C@@H](Cc2ccc(OCCN)cc2)C(=O)N[C@@H](Cc2ccc3ccccc3c2)C(=O)N[C@@](C)(CC(C)C)C(=O)N1", "measuredValue": 99}
{"molecule": "CNC(=O)[C@H](Cc1cccnc1)NC(=O)[C@H](CCN)NC(=O)[C@@H]1CCC(=O)NCc2ccc(cc2)CC(=O)N(C)[C@@H](CO)C(=O)N[C@H]2CCC(=O)NCC[C@H](NC(=O)[C@H](CCC(N)=O)NC(=O)[C@H](Cc3c[nH]c4ccccc34)NC2=O)C(=O)N[C@@H](Cc2ccc(OCCN)cc2)C(=O)N[C@@H](Cc2ccc3ccccc3c2)C(=O)N[C@@](C)(CC(C)C)C(=O)N1 [Compound 18] ([X1][NMeS]EWQ[Dab][AEF][2Nal][αMeL]E[Dab][3Pal]-NHMe; lactam 3-6, N-10)", "measuredValue": 96}
{"molecule": "CNC(=O)[C@H](Cc1cccnc1)NC(=O)[C@H](CCN)NC(=O)[C@@H]1CCC(=O)NCc2ccc(cc2)CC(=O)N[C@@H](C)C(=O)N[C@H]2CCC(=O)NCC[C@H](NC(=O)[C@H](CCC(N)=O)NC(=O)[C@H](Cc3c[nH]c4ccccc34)NC2=O)C(=O)N[C@@H](Cc2ccc(OCCN)cc2)C(=O)N[C@@H](Cc2c[nH]c3ccccc23)CC(=O)NC(C)(C)C(=O)N1", "measuredValue": 101}
